Numbers sourced from ChEMBL document CHEMBL1128353.

IC50, Thromboxane-A synthase (Homo sapiens): measured values
State just the number; it will be interpreted in nM.

Annotate the compound O=C(O)CC/C=C\C[C@@H]1CO[C@H](c2ccccc2OCCOc2ccc(/C(=C\CCCCC(=O)O)c3cccnc3)cc2)O[C@@H]1c1ccccc1O with its measured IC50.
30

Annotate the compound O=C(O)CC/C=C\C[C@@H]1CO[C@H](COc2cc(C(=O)O)ccc2OCCn2ccnc2)O[C@@H]1c1ccccc1O with its measured IC50.
1700

Annotate the compound O=C(O)CC/C=C\C[C@@H]1CO[C@H](CCCCCCCCCCOc2ccc(/C(=C\CCCCC(=O)O)c3cccnc3)cc2)O[C@@H]1c1ccccc1O with its measured IC50.
40

Annotate the compound O=C(O)CC/C=C\C[C@@H]1CO[C@H](c2cccc(COc3ccc(/C(=C\CCCCC(=O)O)c4cccnc4)cc3)c2)O[C@@H]1c1ccccc1O with its measured IC50.
40

Annotate the compound O=C(O)CC/C=C\C[C@@H]1CO[C@H](c2ccc(OCCCCCCOc3cc(C(=O)O)ccc3OCCn3ccnc3)cc2)O[C@@H]1c1ccccc1O with its measured IC50.
40

Annotate the compound O=C(O)CC/C=C\C[C@@H]1CO[C@H](c2ccc(COc3cccc(/C(=C\CCCCC(=O)O)c4cccnc4)c3)cc2)O[C@@H]1c1ccccc1O with its measured IC50.
10

Annotate the compound O=C(O)CC/C=C\C[C@@H]1CO[C@H](c2ccc(CCOc3ccc(/C(=C\CCCCC(=O)O)c4cccnc4)cc3)cc2)O[C@@H]1c1ccccc1O with its measured IC50.
50

* * *

Target chain: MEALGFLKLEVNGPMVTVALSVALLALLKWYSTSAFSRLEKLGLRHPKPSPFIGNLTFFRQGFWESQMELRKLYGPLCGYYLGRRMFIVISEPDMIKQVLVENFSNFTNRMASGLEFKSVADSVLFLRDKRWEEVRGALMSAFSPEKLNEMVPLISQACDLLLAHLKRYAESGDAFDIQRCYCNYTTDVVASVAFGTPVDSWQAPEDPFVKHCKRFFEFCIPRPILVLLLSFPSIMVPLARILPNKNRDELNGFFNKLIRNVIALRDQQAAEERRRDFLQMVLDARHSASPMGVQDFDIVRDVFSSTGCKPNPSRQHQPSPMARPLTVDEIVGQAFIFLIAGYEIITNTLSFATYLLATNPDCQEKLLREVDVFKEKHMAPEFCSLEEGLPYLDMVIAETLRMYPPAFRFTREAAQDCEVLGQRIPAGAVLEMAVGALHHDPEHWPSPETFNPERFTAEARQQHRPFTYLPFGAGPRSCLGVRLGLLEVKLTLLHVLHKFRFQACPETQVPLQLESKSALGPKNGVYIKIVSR
Please respond with reported pIC50 for every item in the list.
// pIC50: -log10(molar conc.)

Annotate the compound O=C(O)CC/C=C\C[C@@H]1CO[C@H](CCCCCOc2cc(C(=O)O)ccc2OCCn2ccnc2)O[C@@H]1c1ccccc1O with its measured pIC50.
7.22

Annotate the compound O=C(O)CC/C=C\C[C@@H]1CO[C@H](c2ccc(COc3ccc(/C(=C\CCCCC(=O)O)c4cccnc4)cc3)cc2)O[C@@H]1c1ccccc1O with its measured pIC50.
7.70

Annotate the compound O=C(O)CC/C=C\C[C@@H]1CO[C@H](c2ccc(OCCOc3cc(C(=O)O)ccc3OCCn3ccnc3)cc2)O[C@@H]1c1ccccc1O with its measured pIC50.
7.22

Annotate the compound O=C(O)CC/C=C\C[C@@H]1CO[C@H](CCOc2ccc(/C(=C\CCCCC(=O)O)c3cccnc3)cc2)O[C@@H]1c1ccccc1O with its measured pIC50.
7.52

Annotate the compound O=C(O)CC/C=C\C[C@@H]1CO[C@H](c2ccc(OCCn3ccnc3)c(C(=O)O)c2)O[C@@H]1c1ccccc1O with its measured pIC50.
5.42

Annotate the compound O=C(O)CC/C=C\C[C@@H]1CO[C@H](C(CCC/C=C(/c2ccccc2)c2cccnc2)C(=O)O)O[C@@H]1c1ccccc1O (some centres not stated) with its measured pIC50.
7.40
